test: In vivo mouse pharmacokinetics; settings: female, mouse, in vivo; PO, 10 mg/kg, NMRI mice; read-out: AUC0–8
AUC(0-t) at 8 h for assorted compounds
Please make sure the unit comes right after the number.

Look over these answered cases.
compound: CNC(=O)[C@H]1Cc2ccccc2N1C(=O)Cc1ccc(F)cc1 [Compound 47]
test-readout: AUC(0-t) at 8 h
recorded-result: 3.3 µM·h
--
compound: CNC(=O)C1Cc2cc(F)ccc2N1C(=O)COc1ccc(F)cc1 (stereo not drawn) [Compound 55]
test-readout: AUC(0-t) at 8 h
recorded-result: 10 µM·h

Switching to the query record.
-- ask Which AUC(0-t) at 8 h value belongs to CNC(=O)C1Cc2ccccc2N1C(=O)COc1ccc(F)cc1 (stereo not drawn) [Compound 35] ?
-- reply 0.8 µM·h
